Measured Surface Tension @ 6 bubbles/sec., 0.1 wt % by item
# test-details: Dynamic surface tension, maximum bubble pressure method (Kruss BP-2)
# Assay type: physicochemical
# condition: 6 bubbles/sec., 25° C.
# Method: Dynamic surface tension is measured using a Kruss BP-2 Bubble Pressure Tensiometer. During the test, high purity nitrogen gas bubbles are produced in the surfactant solution at an exactly defined bubble generation rate. […] During this process the pressure passes through a maximum whose value is recorded by the instrument. Surface tension is then calculated from the maximum pressure during bubble formation, and reported as a function of bubble surface age, in ms, and bubble frequency. […]
measured-parameter: Surface Tension @ 6 bubbles/sec., 0.1 wt % (dyne/cm)

> print(dat)
                                   molecule  measured.value
1  CCCCCC(CCC)COCC(O)COCC(O)CO (centres unmarked)            33.3
2  CCCCCCCCCCCCOCC(O)COCC(O)COCC(O)CO (centres unmarked) [Compound C12TG, reference compound]            56.9
3  CCCCCCCCCCOCC(O)COCC(O)CO (centres unmarked)            43.8
4  CCCCCCCCCCCOCC(O)COCC(O)CO (centres unmarked)            61.4
5  CCCCCCCCCOCC(O)COCC(O)CO (centres unmarked)            35.6

src = patent US8999071B2
